Test system: M21
Method Notes: Antiproliferative activity against human M21 cells after 48 hrs by sulforhodamine B assay
Assay type: functional, cell-based
Experimental Context: M21, 48 h
Quantity Measured: log10 IC50 (log10 of the value in nM)
A difference of one corresponds to tenfold IC50; all values are log10 with IC50 in nM.

Look over these answered cases.
Cc1cc(OS(=O)(=O)c2ccc(N3CCNC3=O)cc2)ccc1[N+](=O)[O-] 2.00
O=C1NCCN1c1ccc(S(=O)(=O)Oc2cc(F)c(F)c(F)c2)cc1 1.63
O=C1NCCN1c1ccc(S(=O)(=O)Oc2cccc([N+](=O)[O-])c2)cc1 1.68
Cc1ccc(OS(=O)(=O)c2ccc(N3CCNC3=O)cc2)c(C)c1 1.59
Nc1cccc(OS(=O)(=O)c2ccc(N3CCNC3=O)cc2)c1 2.23
COc1cccc(OS(=O)(=O)c2ccc(N3CCNC3=O)cc2)c1 1.38

log10 IC50 measured on `O=C1NCCN1c1ccc(S(=O)(=O)Oc2ccc(F)cc2F)cc1` = 1.54

log10 IC50 measured on `O=C1NCCN1c1ccc(S(=O)(=O)Oc2ccc(I)cc2)cc1` = 2.04

log10 IC50 measured on `O=C1NCCN1c1ccc(S(=O)(=O)Oc2ccccn2)cc1` = 2.46

log10 IC50 measured on `O=C1NCCN1c1ccc(S(=O)(=O)Oc2cc(Cl)c(Cl)cc2Cl)cc1` = 1.49
